tested on: OATP2B1; experiment: Fluorescence-based cytotoxicity assay, OATP2B1-expressing A431-2B1 mCh; settings: human
Can you tell me IC50 at […] for the items I'm about to list?

Solved entries (count: 2):
CN(Cc1cnc2nc(N)nc(N)c2n1)c1ccc(C(=O)N[C@@H](CCC(=O)O)C(=O)O)cc1 [NSC-740, Methotrexate] : 30 nM
COc1cc([C@@H]2c3cc4c(cc3[C@@H](O[C@@H]3O[C@@H]5CO[C@@H](c6cccs6)O[C@H]5[C@H](O)[C@H]3O)[C@H]3COC(=O)[C@H]23)OCO4)cc(OC)c1O [NSC-122819, Teniposide] : 70 nM

Now for another entry.
Input line: For the molecule COc1cc([C@@H]2c3cc4c(cc3[C@@H](O[C@@H]3O[C@@H]5CO[C@@H](C)O[C@H]5[C@H](O)[C@H]3O)[C@H]3COC(=O)[C@H]23)OCO4)cc(OC)c1O [NSC-141540, Etoposide] , report IC50 at […].
Output line: 820 nM

====

test system: Mes-Sa cells; assay: Fluorescence-based cytotoxicity assay, parental Mes-Sa mCh; settings: read-out: IC50 Mes-Sa, monoculture; fluorescent protein based assay, monoculture
RECORDED_METRIC: IC50 (µM)
One number for each entry, in µM.

Input line: Identify measured IC50 obtained with Mes-Sa cells for Oc1c(CN2CCCCC2)ccc2cccnc12 .
Output line: 5.08

====

system: Mes-Sa cells; experiment: Fluorescence-based cytotoxicity assay, parental Mes-Sa mCh; conditions: read-out: IC50 Mes-Sa, triple co-culture; fluorescent protein based assay, triple co-culture
RECORDED_METRIC: IC50 (µM)
Answers are plain numbers, in µM.

Input line: Fill in reported IC50 for this entry: Oc1c(CN2CCCCC2)ccc2cccnc12
Output line: 3.21

====

system: A431 cells; assay: Fluorescence-based cytotoxicity assay, parental A431 eGFP; conditions: read-out: IC50 A431, monoculture; fluorescent protein based assay, monoculture
RECORDED_METRIC: IC50 (µM)
Give bare numbers, in µM.

Input line: Tell me IC50 of Oc1c(CN2CCCCC2)ccc2cccnc12 [NSC57969] when tested on A431 cells.
Output line: 5.13

====

Molecular target: OATP2B1 (Homo sapiens)
Sequence (O94956 1-709): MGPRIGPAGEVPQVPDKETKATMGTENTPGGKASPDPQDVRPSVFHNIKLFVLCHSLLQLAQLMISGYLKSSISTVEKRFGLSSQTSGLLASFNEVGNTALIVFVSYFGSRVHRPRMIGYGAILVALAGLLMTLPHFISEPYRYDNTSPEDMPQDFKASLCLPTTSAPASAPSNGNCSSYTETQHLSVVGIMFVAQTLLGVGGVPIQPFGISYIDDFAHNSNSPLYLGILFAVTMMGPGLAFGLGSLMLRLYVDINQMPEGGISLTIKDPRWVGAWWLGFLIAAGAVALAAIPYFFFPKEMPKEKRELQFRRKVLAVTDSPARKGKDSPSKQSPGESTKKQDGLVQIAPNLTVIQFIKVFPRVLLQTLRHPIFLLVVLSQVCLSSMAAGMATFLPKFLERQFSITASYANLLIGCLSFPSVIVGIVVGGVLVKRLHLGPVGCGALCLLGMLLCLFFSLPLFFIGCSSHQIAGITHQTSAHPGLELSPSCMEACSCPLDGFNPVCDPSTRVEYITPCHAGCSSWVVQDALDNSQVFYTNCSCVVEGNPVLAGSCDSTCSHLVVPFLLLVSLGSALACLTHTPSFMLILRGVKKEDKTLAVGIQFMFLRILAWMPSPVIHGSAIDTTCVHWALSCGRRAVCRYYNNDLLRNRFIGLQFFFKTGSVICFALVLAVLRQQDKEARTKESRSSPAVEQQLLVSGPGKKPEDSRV
Experiment: Inhibition of OATP2B1-mediated Cascade Blue uptake (microplate-based uptake assay, A431-2B1 cells)
Settings: read-out: IC50, inhibition of OATP2B1-mediated Cascade Blue (CB) uptake; CB 10 µM, 30 min; average ± SD
RECORDED_METRIC: IC50
// return the numeric value with its unit appended

Input line: Supply measured IC50 of Cc1c(N)nc([C@H](CC(N)=O)NC[C@H](N)C(N)=O)nc1C(=O)N[C@H](C(=O)N[C@H](C)[C@@H](O)[C@H](C)C(=O)N[C@H](C(=O)NCCc1nc(-c2nc(C(=O)NCCC[S+](C)C)cs2)cs1)[C@@H](C)O)[C@@H](OC1OC(CO)C(O)C(O)C1OC1OC(CO)C(O)C(OC(N)=O)C1O)c1cnc[nH]1 (stereo partly shown) in your reply.
Output line: 64.2 µM

====

test system: A431-B1 cells (ABCB1/P-glycoprotein expressing); experiment: Fluorescence-based cytotoxicity assay, ABCB1-expressing A431-B1 mCh; settings: read-out: IC50 A431B1, triple co-culture; fluorescent protein based assay, triple co-culture
RECORDED_METRIC: pIC50
Answers are plain numbers, as −log10 of the molar value.

Input line: Provide one value: measured pIC50 of Oc1c(CN2CCCCC2)ccc2cccnc12
Output line: 5.56

====

system: Mes-Sa-B1 cells (Pgp overexpressing); assay: Fluorescence-based cytotoxicity assay, Mes-Sa-B1 mOr; settings: read-out: IC50 Mes-Sa-B1, triple co-culture; fluorescent protein based assay, triple co-culture
RECORDED_METRIC: IC50 (µM)
Give bare numbers, in µM.

Input line: For Oc1c(CN2CCCCC2)ccc2cccnc12 [NSC57969] , write its IC50.
Output line: 1.8

====

Molecular target: OATP2B1 (Homo sapiens)
Sequence (O94956 1-709): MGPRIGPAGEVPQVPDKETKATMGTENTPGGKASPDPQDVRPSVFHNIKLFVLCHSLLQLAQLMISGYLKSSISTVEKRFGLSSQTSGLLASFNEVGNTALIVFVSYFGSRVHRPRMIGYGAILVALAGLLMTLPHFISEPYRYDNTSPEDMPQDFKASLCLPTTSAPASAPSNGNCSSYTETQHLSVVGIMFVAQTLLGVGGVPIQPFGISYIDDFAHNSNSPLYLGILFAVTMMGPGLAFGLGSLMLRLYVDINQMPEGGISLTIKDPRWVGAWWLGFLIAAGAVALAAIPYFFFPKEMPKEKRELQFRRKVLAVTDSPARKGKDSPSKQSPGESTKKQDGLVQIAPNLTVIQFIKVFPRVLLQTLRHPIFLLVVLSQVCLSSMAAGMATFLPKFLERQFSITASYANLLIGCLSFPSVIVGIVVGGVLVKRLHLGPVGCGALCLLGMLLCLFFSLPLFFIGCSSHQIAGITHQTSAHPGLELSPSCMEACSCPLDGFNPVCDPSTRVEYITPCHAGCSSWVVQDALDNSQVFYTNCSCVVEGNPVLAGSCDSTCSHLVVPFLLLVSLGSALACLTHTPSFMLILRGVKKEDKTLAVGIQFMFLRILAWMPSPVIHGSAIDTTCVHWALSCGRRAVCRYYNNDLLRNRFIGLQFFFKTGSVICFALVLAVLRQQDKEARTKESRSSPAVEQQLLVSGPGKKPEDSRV
Test: Inhibition of OATP2B1-mediated Cascade Blue uptake (microplate-based uptake assay, A431-2B1 cells)
RECORDED_METRIC: log10 IC50 (log10 of the value in µM)
On a log10 scale: recorded IC50, unit µM.

# count of solved cases: 5
CCCCCOC(=O)Nc1nc(=O)n([C@@H]2O[C@H](C)[C@@H](O)[C@H]2O)cc1F [NSC-712807, Capecitabine] : 2.09
CC(=O)O[C@@]12CO[C@@H]1C[C@H](O)[C@@]1(C)C(=O)[C@H](O)C3=C(C)[C@@H](OC(=O)[C@H](O)[C@@H](NC(=O)OC(C)(C)C)c4ccccc4)C[C@@](O)([C@@H](OC(=O)c4ccccc4)[C@H]21)C3(C)C [NSC-628503, Docetaxel] : 1.05
S=P(N1CC1)(N1CC1)N1CC1 [NSC-6396, Thioplex] : 2.76
COc1cc([C@@H]2c3cc4c(cc3[C@@H](O[C@@H]3O[C@@H]5CO[C@@H](C)O[C@H]5[C@H](O)[C@H]3O)[C@H]3COC(=O)[C@H]23)OCO4)cc(OC)c1O [NSC-141540, Etoposide] : 0.27
CC/C(=C(\c1ccccc1)c1ccc(OCCN(C)C)cc1)c1ccccc1 [NSC-180973, Tamoxifen] : 1.04

Go through the list and state log10 IC50 for each entry.
1. COc1cc([C@@H]2c3cc4c(cc3[C@@H](O[C@@H]3O[C@@H]5CO[C@@H](c6cccs6)O[C@H]5[C@H](O)[C@H]3O)[C@H]3COC(=O)[C@H]23)OCO4)cc(OC)c1O [NSC-122819, Teniposide]
2. CN(Cc1cnc2nc(N)nc(N)c2n1)c1ccc(C(=O)N[C@@H](CCC(=O)O)C(=O)O)cc1 [NSC-740, Methotrexate]

Output line:
1. 0.66
2. 2.42

====

tested on: A431-2B1 cells (OATP2B1 expressing); assay: Fluorescence-based cytotoxicity assay, OATP2B1-expressing A431-2B1 mCh; conditions: IC50 A431 eGFP / IC50 A4312B1 mCh, monoculture
Marks after values point to notes of the source that are not given here.
For each entry below, report its SR, monoculture value.

Take a look at these entries with their results.
COc1cc([C@@H]2c3cc4c(cc3[C@@H](O[C@@H]3O[C@@H]5CO[C@@H](C)O[C@H]5[C@H](O)[C@H]3O)[C@H]3COC(=O)[C@H]23)OCO4)cc(OC)c1O [NSC-141540, Etoposide] : 3.2^*
COc1cc([C@@H]2c3cc4c(cc3[C@@H](O[C@@H]3O[C@@H]5CO[C@@H](c6cccs6)O[C@H]5[C@H](O)[C@H]3O)[C@H]3COC(=O)[C@H]23)OCO4)cc(OC)c1O [NSC-122819, Teniposide] : 6.1^**
CCCCCOC(=O)Nc1nc(=O)n([C@@H]2O[C@H](C)[C@@H](O)[C@H]2O)cc1F : 3.04^**
CN(Cc1cnc2nc(N)nc(N)c2n1)c1ccc(C(=O)N[C@@H](CCC(=O)O)C(=O)O)cc1 [NSC-740, Methotrexate] : 3.59^**

For each of the items listed, what is its SR, monoculture?
1. CC/C(=C(\c1ccccc1)c1ccc(OCCN(C)C)cc1)c1ccccc1
2. CC(=O)O[C@@]12CO[C@@H]1C[C@H](O)[C@@]1(C)C(=O)[C@H](O)C3=C(C)[C@@H](OC(=O)[C@H](O)[C@@H](NC(=O)OC(C)(C)C)c4ccccc4)C[C@@](O)([C@@H](OC(=O)c4ccccc4)[C@H]21)C3(C)C

Output line:
[0.9, "4.35^*"]
